Data credit: ChEMBL document CHEMBL1914439

Recorded inhibition, one value per entry.
- System Under Test: 3',5'-cyclic-AMP phosphodiesterase 4B (Homo sapiens) (UniProt Q07343)
- Sequence (Q07343 whole entry): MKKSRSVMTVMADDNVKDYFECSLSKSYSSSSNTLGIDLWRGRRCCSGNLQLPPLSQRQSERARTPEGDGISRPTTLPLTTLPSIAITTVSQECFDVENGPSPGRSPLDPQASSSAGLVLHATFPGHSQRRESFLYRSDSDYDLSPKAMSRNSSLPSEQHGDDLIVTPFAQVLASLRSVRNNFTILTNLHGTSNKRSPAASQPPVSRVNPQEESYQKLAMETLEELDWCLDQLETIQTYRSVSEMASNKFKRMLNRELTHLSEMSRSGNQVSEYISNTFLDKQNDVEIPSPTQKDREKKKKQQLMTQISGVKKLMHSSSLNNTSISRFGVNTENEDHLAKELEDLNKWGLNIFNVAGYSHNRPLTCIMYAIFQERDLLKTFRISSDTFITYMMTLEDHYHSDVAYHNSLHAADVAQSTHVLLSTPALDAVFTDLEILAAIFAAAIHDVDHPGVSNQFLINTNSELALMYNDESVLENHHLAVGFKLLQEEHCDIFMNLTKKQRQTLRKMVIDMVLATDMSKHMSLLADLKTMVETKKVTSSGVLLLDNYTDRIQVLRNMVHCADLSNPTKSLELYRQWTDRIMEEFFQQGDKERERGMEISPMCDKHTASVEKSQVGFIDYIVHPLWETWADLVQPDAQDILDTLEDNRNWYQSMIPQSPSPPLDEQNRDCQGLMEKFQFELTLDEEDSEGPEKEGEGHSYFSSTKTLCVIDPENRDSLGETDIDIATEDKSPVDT
- Procedure Summary: Inhibition of recombinant His-tagged PDE4B expressed in Sf9 cells using cAMP as substrate at 30 uM preincubated for 15 mins measured after 1 hr by multilabel plate reader
Dear colleague, please return just the value in %, with no unit written.

Would you please look over these solved cases?
{"Smiles Text": "Cc1ccccc1C#CCn1c(=O)c(C=O)cc2ccccc21", "inhibition [%]": 45.5}
{"Smiles Text": "CC1=CC(C)(C)N(CC#Cc2cccc([N+](=O)[O-])c2)c2cc(Oc3ccccc3)c(NS(C)(=O)=O)cc21", "inhibition [%]": 41.6}
{"Smiles Text": "CC1=CC(C)(C)N(CC#Cc2ccc([N+](=O)[O-])cc2)c2cc(Oc3ccccc3)c(NS(C)(=O)=O)cc21", "inhibition [%]": 35.1}
{"Smiles Text": "O=Cc1cc2ccccc2n(CC#Cc2ccccc2Cl)c1=O", "inhibition [%]": 54.4}

Short answer on 3',5'-cyclic-AMP phosphodiesterase 4B (Homo sapiens) (UniProt Q07343) for O=Cc1cc2ccccc2n(CC#Cc2cccc([N+](=O)[O-])c2)c1=O , inhibition: 22.6

Short answer on 3',5'-cyclic-AMP phosphodiesterase 4B (Homo sapiens) (UniProt Q07343) for O=Cc1cc2ccccc2n(CC#Cc2ccc([N+](=O)[O-])cc2)c1=O , inhibition: 4.15

Short answer on 3',5'-cyclic-AMP phosphodiesterase 4B (Homo sapiens) (UniProt Q07343) for COc1ccc(C#CCn2c(=O)c(C=O)cc3ccccc32)cc1 , inhibition: 22.6

Short answer on 3',5'-cyclic-AMP phosphodiesterase 4B (Homo sapiens) (UniProt Q07343) for O=Cc1cc2ccccc2n(CC#Cc2ccc(Cl)cc2)c1=O , inhibition: 26.5

Short answer on 3',5'-cyclic-AMP phosphodiesterase 4B (Homo sapiens) (UniProt Q07343) for COC(=O)c1ccccc1C#CCN1c2cc(Oc3ccccc3)c(NS(C)(=O)=O)cc2C(C)=CC1(C)C , inhibition: 33.1

Short answer on 3',5'-cyclic-AMP phosphodiesterase 4B (Homo sapiens) (UniProt Q07343) for CC1=CC(C)(C)N(CC#Cc2ccccc2[N+](=O)[O-])c2cc(Oc3ccccc3)c(NS(C)(=O)=O)cc21 , inhibition: 37.4

Short answer on 3',5'-cyclic-AMP phosphodiesterase 4B (Homo sapiens) (UniProt Q07343) for CC1=CC(C)(C)N(CC#Cc2ccccc2Cl)c2cc(Oc3ccccc3)c(NS(C)(=O)=O)cc21 , inhibition: 40.3
